- System: Klebsiella pneumoniae
- procedure_text: Antibacterial activity against Klebsiella pneumoniae ATCC BAA-2146 after 20 to 24 hrs by broth microdilution method
- Type: functional
# MIC per entry
reported_metric: MIC (µg/mL)

molecule=CCCCOC(=O)c1ccccc1C(=O)OCC(C)C measured_on="Klebsiella pneumoniae" reported_metric=MIC result_modifier=> reported=128
molecule=CC(C)CC[C@H](O)[C@@H]1C(=O)OC[C@H]1CO measured_on="Klebsiella pneumoniae" reported_metric=MIC result_modifier== reported=64
molecule="NCC[C@H](O)C(=O)N[C@@H]1C[C@H](N)[C@@H](O[C@H]2O[C@H](CN)[C@@H](O)[C@H](O)[C@H]2O)[C@H](O)[C@H]1O[C@H]1O[C@H](CO)[C@@H](O)[C@H](N)[C@H]1O [AMIKACIN]" measured_on="Klebsiella pneumoniae" reported_metric=MIC result_modifier== reported=5
molecule="CC1=C2C(O)C(C(C)CO)CCC2(C)C=CC1=O (stereo not given)" measured_on="Klebsiella pneumoniae" reported_metric=MIC result_modifier== reported=32
